Biological target: MLK3 (Homo sapiens, UniProt Q16584)
Construct: purchased Dundee DU8313
Sequence (Q16584 whole entry): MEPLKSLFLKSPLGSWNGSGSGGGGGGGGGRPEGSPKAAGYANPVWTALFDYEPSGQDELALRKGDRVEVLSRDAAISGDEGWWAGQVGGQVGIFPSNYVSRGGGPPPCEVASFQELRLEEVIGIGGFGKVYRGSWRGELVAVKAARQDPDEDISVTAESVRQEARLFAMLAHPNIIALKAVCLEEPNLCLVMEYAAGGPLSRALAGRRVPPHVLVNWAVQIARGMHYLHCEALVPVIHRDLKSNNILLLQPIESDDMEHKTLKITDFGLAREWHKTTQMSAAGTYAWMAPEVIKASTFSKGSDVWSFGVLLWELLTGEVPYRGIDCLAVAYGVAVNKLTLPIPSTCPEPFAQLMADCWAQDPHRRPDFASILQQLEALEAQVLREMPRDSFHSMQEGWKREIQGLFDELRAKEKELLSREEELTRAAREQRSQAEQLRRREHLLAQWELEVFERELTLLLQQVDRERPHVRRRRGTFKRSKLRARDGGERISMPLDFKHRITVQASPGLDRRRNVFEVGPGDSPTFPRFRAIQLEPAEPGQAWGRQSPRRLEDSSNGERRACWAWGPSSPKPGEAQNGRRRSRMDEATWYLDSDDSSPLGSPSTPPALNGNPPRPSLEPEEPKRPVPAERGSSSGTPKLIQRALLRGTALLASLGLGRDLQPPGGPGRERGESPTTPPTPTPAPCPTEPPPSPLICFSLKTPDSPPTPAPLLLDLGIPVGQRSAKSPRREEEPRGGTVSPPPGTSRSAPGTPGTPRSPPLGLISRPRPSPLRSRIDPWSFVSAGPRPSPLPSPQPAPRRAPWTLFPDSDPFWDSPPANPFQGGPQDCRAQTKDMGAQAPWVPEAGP
Assay: Radiometric filter plate MLK3 assay
Format: biochemical
Conditions: read-out: MK3 IC50
Procedure: After a twenty minute incubation, the reactions were washed through filter plates and read on a scintillation counter. Results are shown in Table 10 below, in which +++ indicates ≦0.1 μM, ++ indicates >0.1 μM and ≦1 μM, and + indicates >1 μM.
pIC50: −log10 of the molar value.
# Lookup of reported pIC50 keyed by entry

molecule: O=c1[nH]c2ncc(-c3cc(F)cc(F)c3)nc2n1-c1ccc2[nH]ccc2c1
pIC50: < 6.00

molecule: COc1cc(-c2cnc3[nH]cc(-c4ccc(NC(C)=O)cc4)c3c2)cc(OC)c1OC
pIC50: > 7.00

molecule: CC(=O)N1CCN(C(=O)c2ccc(-c3cnc4[nH]cc(-c5ccc6[nH]ccc6c5)c4c3)cc2)CC1
pIC50: > 7.00

molecule: COCCC(=O)N1CCN(Cc2ccc(-c3cnc4[nH]cc(-c5ccc6[nH]ccc6c5)c4c3)cc2)CC1
pIC50: > 7.00

molecule: [2H]c1cc2cc(-c3c[nH]c4ncc(-c5ccc(CN6CCN(C)CC6)cc5)cc34)ccc2[nH]1
pIC50: > 7.00

Prompt: Specify pIC50 for "c1cn(Cc2ccc(-c3cnc4[nH]cc(-c5ccc6[nH]ccc6c5)c4c3)cc2)cn1" and stop.
Completion: > 7.00

Prompt: Give the reported value of pIC50 for this record: "O=c1[nH]c2ncc(-c3cc(F)c(O)c(F)c3)nc2n1-c1ccc2[nH]ccc2c1"
Completion: > 7.00

Prompt: Entry "COc1cc(-c2cnc3ncn(-c4ccc5[nH]ccc5c4)c3n2)cc(OC)c1OC" needs its pIC50 filled in; supply it.
Completion: < 6.00

Prompt: Supply recorded pIC50 for "CC(=O)N1CCN(Cc2ccc(-c3cnc4[nH]cc(-c5ccc(C(N)=O)cc5)c4c3)cc2)CC1" here.
Completion: > 7.00

Prompt: Query pIC50 for "COc1cc(-c2cnc3[nH]c(=O)n(-c4ccc5[nH]ccc5c4)c3n2)ccc1O"
Completion: > 7.00

Prompt: For the molecule COc1cc(-c2cnc3c(c2)C(=Cc2ccncc2)C(=O)N3)cc(OC)c1OC (single isomer, unassigned) , give its reported pIC50.
Completion: < 6.00

Prompt: Determine its reported pIC50: "O=c1[nH]c2ncc(-c3cc(Cl)cc(Cl)c3)nc2n1-c1ccc2[nH]ccc2c1"
Completion: < 6.00

Prompt: Complete the entry with pIC50 for "O=c1[nH]c2ncc(-c3ccncc3)nc2n1CC1CC1"
Completion: < 6.00

Prompt: Provide measured pIC50 value, entry: "CN(C)c1ccc(-c2cnc3[nH]cc(-c4ccc(F)c(Cl)c4)c3c2)cn1"
Completion: < 6.00

Prompt: Give recorded pIC50. "CC(C)(C)OC(=O)N1CCN(C(=O)c2ccc(-c3cnc4[nH]cc(-c5ccc(C(N)=O)cc5)c4c3)cc2)CC1"
Completion: > 7.00

----------
target: MLK3 (Homo sapiens, UniProt Q16584); construct: purchased Dundee DU8313; assay: Radiometric filter plate MLK3 assay; type: biochemical; conditions: read-out: MK3 IC50; note: 2 µM cold ATP (Km)
Overview of reported IC50 across a group of molecules:

molecule: COc1cc(-c2cnc3[nH]cc(-c4ccc5[nH]ccc5c4)c3n2)ccc1OCCN1CCOCC1 [Example 39]
measurementType: IC50
result: < 0.1 µM
--
molecule: O=c1[nH]c2ncc(-c3ccc(N4CCOCC4)cc3)nc2n1CC1CC1 [Example 86]
measurementType: IC50
result: > 1 µM
--
molecule: O=c1[nH]c2ncc(-c3ccc(O)cc3)nc2n1-c1ccc2cn[nH]c2c1 [Example 92]
measurementType: IC50
result: > 1 µM
--
molecule: Nc1ccc(-c2cnc3[nH]c(=O)n(C4CCCC4)c3n2)cn1 [Example 117]
measurementType: IC50
result: > 1 µM
--
molecule: COc1cc(-c2cnc3[nH]c(=O)n(CC4CC4)c3c2)cc(OC)c1OC [Example 125]
measurementType: IC50
result: > 1 µM
--
molecule: COc1cc(OC)cc(-c2cnc3[nH]c(=O)n(-c4ccc5[nH]ccc5c4)c3n2)c1 [Example 65]
measurementType: IC50
result: > 1 µM
--
molecule: Nc1ccc(-c2cnc3[nH]cc(-c4ccc5[nH]ccc5c4)c3c2)cc1 [Example 8]
measurementType: IC50
result: < 0.1 µM
--
molecule: Nc1ccc(-c2cnc3[nH]cc(-c4ccc(F)c(Cl)c4)c3c2)cn1 [Example 29]
measurementType: IC50
result: > 1 µM

Prompt: Answer with the recorded IC50 for the molecule listed here: O=c1[nH]c2ncc(-c3ccncc3)nc2n1-c1ccc2[nH]ccc2c1 [Example 44]
Completion: > 1 µM

Prompt: # return recorded IC50 for entry CS(=O)(=O)Nc1ccc(-c2cnc3[nH]cc(-c4ccc5[nH]ccc5c4)c3c2)cc1 [Example 11]
Completion: < 0.1 µM

Prompt: Return the recorded IC50 value; entry: COc1cc(-c2cnc3[nH]c(=O)n(-c4ccc5cc[nH]c5c4)c3n2)cc(OC)c1OC [Example 113]
Completion: < 0.1 µM

Prompt: Hello, please tell me recorded IC50 for this one: CN1CCN(Cc2ccc(-c3cnc4[nH]cc(-c5ccc6nccc(O)c6c5)c4c3)cc2)CC1 [Example 200]
Completion: < 0.1 µM

Prompt: Answer with the recorded IC50 for the molecule listed here: COC(=O)N1CCN(Cc2ccc(-c3cnc4[nH]cc(-c5ccc6[nH]ccc6c5)c4c3)cc2)CC1 [Example 184]
Completion: < 0.1 µM

Prompt: Give reported IC50 value for O=C(CCO)N1CCN(Cc2ccc(-c3cnc4[nH]cc(-c5ccc6[nH]ccc6c5)c4c3)cc2)CC1 [Example 191]
Completion: < 0.1 µM

Prompt: For the molecule CC(=O)Nc1ccc(-c2cnc3[nH]cc(-c4ccc5[nH]ccc5c4)c3c2)cc1 [Example 3] , report IC50.
Completion: < 0.1 µM

Prompt: Report IC50, nothing else, for this molecule: COc1cc(-c2cnc3c(c2)C(Cc2ccc(C(N)=O)cc2)C(=O)N3)cc(OC)c1OC (centres unmarked) [Example 138]
Completion: > 1 µM

Prompt: # return recorded IC50 for entry CN1CCN(Cc2ccc(-c3cnc4[nH]cc(-c5ccc(C(N)=O)cc5)c4c3)cc2)CC1=O [Example 158]
Completion: < 0.1 µM
